# Tested on: Salmonella typhi
# ASSAY_EXPLANATION: Synergy study (checkerboard titration) with hen white lysozyme
# Format: cell-based
Ends that are not written are not given here.
READOUT_TYPE: FIC for combination of cationic peptide and lysozyme

| SUBSTANCE | OBSERVED_VALUE |
| --- | --- |
| H-KWKSFIKKLTSAAKKVVTTAKPLALIS-OH [CM1] | 0.53 |
| KWKSFIKKLTSAAKKVTTAAKPLTK [CPα1] | 0.63 |
| KWKKFIKSLTKSAAKTVVKTAKKPLIV [CM3] | 0.75 |
| KWKSFIKKLTKAAKKVVTTAKKPLIV [CM2] | 0.53 |
